Measured values drawn from patent US20250250357A1 for this set.

- target_under_test: T1, human MSLN-R3-3 polypeptide (human)
- T1 construct: also called human MSLN-R3-3 protein; hMSLN-R3-3
- assay_details: ELISA on coated antigen, antibody 0.01 nM
measure: OD450 (OD450)

# binder, measure, units, numeric_readout
measured = [
    ("S009-F2.13.3 (antibody, human IgG1, kappa, V domains shown, Human-murine chimeric antibody: murine VH/VL on human IgG1 heavy and kappa light constant regions) VH: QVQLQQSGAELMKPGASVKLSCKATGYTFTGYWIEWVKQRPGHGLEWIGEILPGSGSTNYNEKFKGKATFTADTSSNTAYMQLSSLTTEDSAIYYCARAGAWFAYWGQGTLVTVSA VL: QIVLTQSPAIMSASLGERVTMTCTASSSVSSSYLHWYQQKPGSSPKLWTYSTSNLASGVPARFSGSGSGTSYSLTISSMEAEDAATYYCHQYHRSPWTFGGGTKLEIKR", "OD450", "OD450", 0.05),
    ("S009-F2.16.10 (antibody, human IgG1, kappa, V domains shown, Human-murine chimeric antibody: murine VH/VL on human IgG1 heavy and kappa light constant regions) VH: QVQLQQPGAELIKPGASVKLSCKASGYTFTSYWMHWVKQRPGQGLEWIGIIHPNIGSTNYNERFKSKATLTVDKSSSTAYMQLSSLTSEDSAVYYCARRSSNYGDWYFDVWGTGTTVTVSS VL: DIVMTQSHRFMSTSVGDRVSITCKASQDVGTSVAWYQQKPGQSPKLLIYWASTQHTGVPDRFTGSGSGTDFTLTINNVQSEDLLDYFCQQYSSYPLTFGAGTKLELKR", "OD450", "OD450", 0.05),
    ("S009-F2.23.12 (antibody, human IgG1, kappa, V domains shown, Human-murine chimeric antibody: murine VH/VL on human IgG1 heavy and kappa light constant regions) VH: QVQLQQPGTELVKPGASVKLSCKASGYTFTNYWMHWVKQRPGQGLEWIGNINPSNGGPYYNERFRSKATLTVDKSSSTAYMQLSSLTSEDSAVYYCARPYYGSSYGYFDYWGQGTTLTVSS VL: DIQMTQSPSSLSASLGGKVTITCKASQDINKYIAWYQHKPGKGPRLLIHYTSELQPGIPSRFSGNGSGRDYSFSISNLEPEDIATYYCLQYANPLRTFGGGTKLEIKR", "OD450", "OD450", 0.05),
]
